- test-protocol: protease stability score; higher = more stable; yeast display proteolysis, trypsin and chymotrypsin;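 note: relative to predicted unfolded state with 0 unfolded-like and 1 meaning tenfold more protease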
# binarize protease stability score: threshold 1 inclusive, high side yes (1), low side no (0)

residue_string=DEDEEEALDFMRLLVESLQTGDEELISRMADPNVLLIVNGVEHVGREFYVKWVKHLVERVDHMEIRLKRIEIYDGRAHLDTEVIFRFNGRELRKKTHLIIEKVDGRWILKSVIVE class_name="yes (1)"
residue_string=TELEEEAKKYQDFFVTIVVTGDEDSFINLFDPNVRSVVNGRKLHGMHKWKRYIEELLRKIKNLRFELTIHEVNVIDGKVESHMELILRINGVEQRHDLNVHAEKFDGRWLYREIEIR class_name="yes (1)"
residue_string=DETEEMVREMAHLFLHLWITGDEEIIKHLLDPSVRLHINGVDNHGRENALEVVHRILKELRLRHLHIHEVHIINGVIHNNIRLDIEQGDKRRILEIEVILVVWNGKIKSIEVRLK class_name="yes (1)"
residue_string=SDVDEKMETFLTLLFELIYTGDEEVIEKLFDPNVQLDVNGQIYHGMENVIEFVHQVKRHIRWKTVQIRHYRTQGEWAYSQVEVTGTVNGQSHRFEIHIDIWVINGKLKHIKKDIE class_name="yes (1)"
residue_string=SEEHKEMKRSLDESAKALTTGDEEHVTKMVDPNVRIIIGDKTLIGMEKWHEFLKEMRVSIHHIIFRDSDIQGDKIRLDVEVDIRVHYNGREESSKIKSKIILLKFNGKWIIHAVEFD class_name="no (0)"

Inquiry: Has TEHEEISHRLMELLKEALQTGDEEHIRDLADPHVRVIVNGKNIHGREEVHMWLLILNTKFKGLTLRVHHVDIQGEKIILDTRIHVNGRSTTSHVELYVVDGVLKRAHLHIE a recorded protease stability score greater than or equal to 1?
Reply text: yes (1)

Inquiry: Try DEIEKHHRELIELLFHWWHTGDFDSFHRFADPDVKLDFNGVEIHGRERANEFMTRLKEEIRIDDVKLERVQVIDGRMIIHGRRDGNVNGQKEDREVELYVIAINGRIKSVEIRIR next.
Reply text: yes (1)

Inquiry: Try DDEIRFLFKIAHLWMRSHSTGDERVLEHLMDPHVRIDFNGVELHGWKDMLTEWKEIRIIIEHVEIDHYDVQGDKMELNGRISGTFHFNGRTRTTDFRSELRFTVINGKLHSVEIHYR next.
Reply text: yes (1)

---

- test-protocol: protease stability score; higher = more stable; yeast display proteolysis, trypsin and chymotrypsin;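 note: relative to predicted unfolded state with 0 unfolded-like and 1 meaning tenfold more protease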
# binarize protease stability score: threshold 1 inclusive, high side 1 (yes), low side 0 (no)

Below are worked cases with known answers.
residue_string=DHEEEEAERMARKIIHVLHTGDFDSWSHLADPNVRIEVGDKELHGREDLRKLFHLWDERFKNATIMVKDMRVQGNKVHLDHRLNIDGRTIHTTSEIIVINGRIHTVIIDEK class_name="1 (yes)"
residue_string=DENTESVHWLIRVLIQSARTGDEDSMRHLFDPNTKLNINGQEIHGREVAEEWANRVDHIEHVELHRIRNIDGQLDVEGKMRGTVNGKRDENRIELIIIKVDGQWFLRSIRIE class_name="1 (yes)"
residue_string=DELEHFLLEILRELAHALETGDEERLTDLIDPHARINVDGVEIHGMDHWRELLHQIRFSIEDMHITHVEVQGDKIIIHGRVHVSNEVDGVENRSETHEIWYMKKFDGRWRVTTIEVK class_name="1 (yes)"
residue_string=SEDEEIMQRLLEELIEALTTGDEDFFTELVDPHARTEFDGKVMHGRERLKYTIELFGVKHVEFRVEVKRISVFDGRILSDTHLELIIDVDGRSVIIRRHTELRVDKVDGRWFNTEHRIE class_name="0 (no)"
residue_string=DEWEKDARDFTRILLEIFKTGDEKSITELLDPNARVEYGDKEMHGMHLMSRILLKDAKEIRVDHMRLRSIDVYNGVLHVNMEVDGTIDGRRDTYRLHVHTHKFDGRWRVENLIIR class_name="1 (yes)"
residue_string=DDKEETARRILDWITKLLLTGDFDTLHRMADPHMRSNYGEFEMHGMEEHSEWWHRLTLRVDHLREEIKRVTVVNGKIVADLRLRFIIGDKVEVRDITVELIVVDGRLKELRFDVK class_name="1 (yes)"
residue_string=DEDEEKAKEAWEDIVRDIETGNEESMEKMLDPNTRLVVGEKERHGWESASKFVRELRHRVDHVELRLKDSKLYNGRVELDGLLIENFNGVEVRHKMIVFILKINGRWHIESVIIH class_name="1 (yes)"
residue_string=SEEDKLAREIFEETIRILLTGDEEKLEELLDPRVRVHIHIGDKRIDLHGREEMSKWLHEIRIEHFHIDDLKVQGDKLHADTHEVVRIGDKRIETRTEWELVVVNGRLKELHIRVK class_name="1 (yes)"
residue_string=DEEEKLARHWMEVWHHAEHTGDFEEFNRLLDPHTRIEINFDGQRVELHGRHEYERFFRELGMEIRRIRLRDLHVVDGKWHIDGERDGEYDGKRIDSQIIIIYRVIDGRVKEIRKDDR class_name="0 (no)"
residue_string=DEHDELIERIARIYFEDELTGDWDSMMRLMDPRTRDDYNGKERHGWEEVETFFEELRKKFKGMKFHLEHLDVIGNKVHIIARWNVNGRHVQVHIDIIAFDGRVKSFSERVDIR class_name="1 (yes)"

Inquiry: Has SEDEEYSRIIVKLWLEKMRTGDEDSLTKLMDPNYRLDINGKIFHGREEALLALREMVNRIDHFRDIKIHHVDIQGDKIRIDGRLEGEINGVHEIHKSSLVLVKYDGVWVIEEQKVL a recorded protease stability score greater than or equal to 1?
Reply text: 1 (yes)
